targetOrTestSystem: ΔF508-CFTR (Homo sapiens, UniProt P13569, DEL508-508)
Construct: host or cells: CFBE41o-, doxycycline-inducible
protocolNotes: CFTR cell surface levels using HRP-tagged ΔF508-CFTR expressing CFBE cells, in the presence of a co-corrector
Type: cell-based
conditionDescription: HRP-tagged ΔF508-CFTR CFBE cells, in the presence of 3 μM co-corrector
reportedMetric: % Activation
The answer consists of two parts: a number and, after it, its unit.

> print(dat)
                                   compound                        targetortestsystem  reportedmetric   result
1  CN(C)S(=O)(=O)NC(=O)c1cc(C2CCN(CC3CCOCC3)CC2)c2c(C3CCC3)nn(-c3ccc(F)cc3)c2n1 [Compound 601]  ΔF508-CFTR (Homo sapiens, UniProt P13569, DEL508-508)    % Activation   273.9%
2  CCOC(=O)N1CCC(NS(=O)(=O)NC(=O)c2cc(N3CCC(COC)CC3)c3c(C4CCC4)nn(-c4ccccc4)c3n2)CC1 [Compound 393]  ΔF508-CFTR (Homo sapiens, UniProt P13569, DEL508-508)    % Activation  533.65%
3  CCCN(CC)S(=O)(=O)NC(=O)c1cc(OCC2CCOCC2)c2c(C3CCC3)nn(-c3ccccc3)c2n1 [Compound 355]  ΔF508-CFTR (Homo sapiens, UniProt P13569, DEL508-508)    % Activation   278.4%
4  O=C(NS(=O)(=O)C1CCOC1)c1cc(N2CCC(N3CCOCC3)CC2)c2c(C3CCC3)nn(-c3ccc(F)cc3)c2n1 (stereo not shown) [Compound 429]  ΔF508-CFTR (Homo sapiens, UniProt P13569, DEL508-508)    % Activation   422.8%
5  O=C(NS(=O)(=O)N1CCC(F)CC1)c1cc(N2CCC(CN3CCCC3)CC2)c2c(C3CCC3)nn(-c3ccccc3)c2n1 [Compound 459]  ΔF508-CFTR (Homo sapiens, UniProt P13569, DEL508-508)    % Activation  388.87%

Exercise: Can you look up the measured % Activation of COCC1CCN(c2cc(C(=O)NS(=O)(=O)C3CCOC3)nc3c2c(C2CCC2)nn3-c2ccccc2)CC1 (stereo not shown) [Compound 369] for me?
Key: 444%

Exercise: How about CN1CCCN(C(=O)c2cc(N3CCC(CN4CCCC4)CC3)c3c(C4CCC4)nn(-c4ccccc4)c3n2)S1(=O)=O [Compound 660] ?
Key: 172.1%

###

targetOrTestSystem: ΔF508-CFTR (Homo sapiens, UniProt P13569, DEL508-508)
Construct: host or cells: CFBE41o-, doxycycline-inducible
protocolNotes: CFTR cell surface levels using HRP-tagged ΔF508-CFTR expressing CFBE cells, in the presence of a co-corrector
Assay type: cell-based
conditionDescription: HRP-tagged ΔF508-CFTR CFBE cells, in the presence of 3 μM co-corrector; read-out: EC50
Group membership follows EC50 per the scheme bottom range (below 100 nM), center range (100 nM to below 400 nM), top range (400 nM or more)

Exercise: Lab note: sort CN(C)S(=O)(=O)NC(=O)c1cc(-c2ccc(N3CCC(C#N)CC3)nc2)c2c(C3CCC3)nn(-c3ccccc3)c2n1 into the matching EC50 band.
Key: bottom range

Exercise: How about CCS(=O)(=O)NC(=O)c1cc(-c2ccc(N3CCOCC3)cc2)c2c(C)nn(-c3cccc(Cl)c3)c2n1 ?
Key: top range

###

targetOrTestSystem: CFTR ΔF508 (Homo sapiens, UniProt P13569, DEL508-508)
Construct: bronchial epithelial cells isolated from CF patients homozygous for the CFTR ΔF508 mutation; McGill University; Asterand; University of North Carolina hAEC-CF; host or cells: primary human bronchial epithelial cells from CF patients homozygous for ΔF508, differentiated at air-liquid interface
Sequence (P13569 with tags, fused parts or gaps DEL508-508): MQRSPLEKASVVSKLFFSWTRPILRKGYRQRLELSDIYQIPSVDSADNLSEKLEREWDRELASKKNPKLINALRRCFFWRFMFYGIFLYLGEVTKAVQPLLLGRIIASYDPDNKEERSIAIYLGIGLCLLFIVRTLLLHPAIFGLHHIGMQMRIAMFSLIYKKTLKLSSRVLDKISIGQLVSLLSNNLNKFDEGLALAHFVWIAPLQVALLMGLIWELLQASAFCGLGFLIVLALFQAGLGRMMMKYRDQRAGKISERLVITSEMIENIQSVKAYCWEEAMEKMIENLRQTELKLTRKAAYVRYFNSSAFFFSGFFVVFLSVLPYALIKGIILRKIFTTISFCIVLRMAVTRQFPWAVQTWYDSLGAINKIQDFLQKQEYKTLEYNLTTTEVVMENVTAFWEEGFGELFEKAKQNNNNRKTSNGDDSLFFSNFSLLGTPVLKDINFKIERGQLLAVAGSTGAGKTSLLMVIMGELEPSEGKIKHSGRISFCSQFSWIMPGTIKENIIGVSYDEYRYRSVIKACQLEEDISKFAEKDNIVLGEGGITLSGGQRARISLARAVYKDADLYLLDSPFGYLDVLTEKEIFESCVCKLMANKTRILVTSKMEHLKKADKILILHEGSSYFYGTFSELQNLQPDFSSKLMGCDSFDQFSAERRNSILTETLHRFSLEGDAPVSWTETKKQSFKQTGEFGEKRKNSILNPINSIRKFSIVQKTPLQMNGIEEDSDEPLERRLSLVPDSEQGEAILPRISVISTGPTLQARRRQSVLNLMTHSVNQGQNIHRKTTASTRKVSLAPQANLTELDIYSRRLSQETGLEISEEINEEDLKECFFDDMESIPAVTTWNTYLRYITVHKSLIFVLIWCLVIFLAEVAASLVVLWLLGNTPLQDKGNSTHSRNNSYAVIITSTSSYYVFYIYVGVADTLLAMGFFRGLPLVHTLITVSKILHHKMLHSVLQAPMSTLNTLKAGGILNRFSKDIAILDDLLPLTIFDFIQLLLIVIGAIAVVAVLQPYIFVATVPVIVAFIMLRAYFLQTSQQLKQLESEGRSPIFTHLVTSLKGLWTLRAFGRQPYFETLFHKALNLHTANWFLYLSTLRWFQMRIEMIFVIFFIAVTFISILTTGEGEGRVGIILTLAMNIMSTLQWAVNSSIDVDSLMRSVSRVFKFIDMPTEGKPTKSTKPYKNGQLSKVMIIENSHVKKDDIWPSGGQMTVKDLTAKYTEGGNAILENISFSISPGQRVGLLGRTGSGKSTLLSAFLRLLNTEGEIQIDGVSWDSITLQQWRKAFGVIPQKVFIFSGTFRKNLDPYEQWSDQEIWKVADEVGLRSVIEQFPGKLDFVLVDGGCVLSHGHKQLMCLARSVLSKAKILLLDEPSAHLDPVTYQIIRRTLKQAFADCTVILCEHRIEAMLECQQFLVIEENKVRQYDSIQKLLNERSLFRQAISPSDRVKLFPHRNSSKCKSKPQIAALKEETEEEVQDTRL
protocolNotes: Chronic TECC assay, primary bronchial epithelial cells of CF patients homozygous for CFTR ΔF508 (corrector, co-corrector and potentiator)
Type: cell-based
conditionDescription: chronic TECC; test compound at 3 μM; AUC = full area under the curve upon forskolin stimulation
Method: Primary Bronchial Epithelial Cells Protocol The TECC (Tranepithelial Clamp Circuit, EP-design) assay measures the functionality of the cystic fibrosis Transmembrane Conductance regulator (CFTR) by measuring the short circuit current (Isc) generated over the basolateral and apical membrane of lung epithelial cells. In TECC the transepithelial potential PD and transepithelial resistance (Rt) are measured in an open circuit and transformed to Ieq using Ohm's law. […]
Group membership follows % Activity at 3 μM (AUC**) per the scheme low bin (below 300%), mid bin (300% to below 400%), high bin (400% or more)

> print(dat)
                                   compound  grouplabel
1  CN1CCN(S(=O)(=O)NC(=O)c2cc(N3CCC(N4CCOCC4)CC3)c3c(C4CCC4)nn(-c4ccc(F)cc4)c3n2)CC1     mid bin
2  COC1CCN(C2CCN(c3cc(C(=O)NS(=O)(=O)N4CC(F)C4)nc4c3c(C3CCC3)nn4-c3ccc(F)cc3)CC2)CC1     low bin
3  COC1CCN(C2CCN(c3cc(C(=O)NS(=O)(=O)N(C)C)nc4c3c(C3CCC3)nn4-c3ccc(F)cc3)CC2)CC1    high bin
4  CN(C)S(=O)(=O)NC(=O)c1cc(C2CCN(C3CCC(F)(F)CC3)CC2)c2c(C3CCC3)nn(-c3ccc(F)cc3)c2n1     mid bin
5  CN(C)S(=O)(=O)NC(=O)c1cc(N2CCC(N3CC(C#N)C3)CC2)c2c(C3CCC3)nn(-c3ccc(F)cc3)c2n1    high bin

Exercise: Lab note: sort COCC1CCN(c2cc(C(=O)NS(=O)(=O)N3CCC(N4CCOCC4)CC3)nc3c2c(C2CCC2)nn3-c2ccccc2)CC1 into the matching % Activity at 3 μM (AUC**) band.
Key: low bin

Exercise: How about CN(C)S(=O)(=O)NC(=O)c1cc(N2CCC3C(CCN3C3CCOCC3)C2)c2c(C3CCC3)nn(-c3ccc(F)cc3)c2n1 (stereo not shown) ?
Key: high bin

Exercise: How about CNS(=O)(=O)NC(=O)c1cc(N2CCC(N3CCN(C(C)C)CC3)CC2)c2c(C3CCC3)nn(-c3ccc(F)cc3)c2n1 ?
Key: mid bin

Exercise: How about COCC1CCN(c2cc(C(=O)NS(=O)(=O)N3CCOCC3)nc3c2c(C2CCC2)nn3-c2ccccc2)CC1 ?
Key: low bin

Exercise: How about COC1CN(C2CCN(c3cc(C(=O)NS(=O)(=O)N(C)C)nc4c3c(C3CCC3)nn4-c3ccc(F)cc3)CC2)C1 ?
Key: mid bin

Exercise: How about O=C(NS(=O)(=O)C1CCOC1)c1cc(N2CCC(CN3CCOCC3)CC2)c2c(C3CCC3)nn(-c3ccc(F)cc3)c2n1 (stereo not shown) ?
Key: low bin

Exercise: How about COC1CCN(C2CCN(c3cc(C(=O)NS(=O)(=O)N4CCOCC4)nc4c3c(C3CCC3)nn4-c3ccc(F)cc3)CC2)CC1 ?
Key: high bin

Exercise: How about CN(C)S(=O)(=O)NC(=O)c1cc(OCC2CCOCC2)c2c(C3CCC3)nn(-c3ccccc3)c2n1 ?
Key: mid bin

###

targetOrTestSystem: ΔF508-CFTR (Homo sapiens, UniProt P13569, DEL508-508)
Construct: host or cells: CFBE41o-, doxycycline-inducible
protocolNotes: CFTR cell surface levels using HRP-tagged ΔF508-CFTR expressing CFBE cells, intrinsic corrector capacity
Format: cell-based
Parameters: concentration or dose not given beside the values
conditionDescription: HRP-tagged ΔF508-CFTR expressing CFBE41o- cells; compound alone (intrinsic corrector capacity); 20 hours at 33° C.
# note: exactly 200% is not below, so it is F; use T for % Activation strictly under it

Recorded results for 6 molecules are shown here.
> print(dat)
                                   molecule  grouplabel
1  CC(C)Oc1nn(C2CCCCC2)c2nc(C(=O)NS(C)(=O)=O)cc(-c3ccc(C(=O)N4CCC(N(C)C)CC4)cc3)c12 [Compound 544]           T
2  CC(C)c1nn(-c2ccc(F)cc2)c2nc(C(=O)NS(C)(=O)=O)cc(OCC3CCCO3)c12 (stereo not shown) [Compound 295]           T
3  COC1CCN(c2cc(C(=O)NS(=O)(=O)C3CCN(C(=O)OCc4ccccc4)CC3)nc3c2c(C2CCC2)nn3-c2ccccc2)CC1 [Compound 208]           T
4  CN(C)S(=O)(=O)NC(=O)c1cc(OCC2CCN(C3CCC3)CC2)c2c(C3CCC3)nn(-c3ccc(F)cc3)c2n1 [Compound 617]           T
5  COCC1(F)CCN(c2cc(C(=O)NS(C)(=O)=O)nc3c2c(C2CCC2)nn3-c2ccccc2)CC1 [Compound 504]           F
6  COCCN(C)c1cccc(-n2nc(C(C)C)c3c(-c4ccc(N5CCOCC5)cc4)cc(C(=O)NS(C)(=O)=O)nc32)c1 [Compound 76]           F

Attention now turns to another entry.
Exercise: Is the reported % Activation for CC(C)c1nn(-c2cccc(N(C)C)c2)c2nc(C(=O)NS(C)(=O)=O)cc(-c3ccc(N4CCOCC4)nc3)c12 [Compound 53] strictly below 200%?
Key: F
